molecular target: UniProtKB P08173; assay: potency of ACh potentiation at hM4 – cell-based, calcium mobilization, human receptor, SAR follow-up (AID 623938); conditions: hM4 cells, PAM with EC20 ACh
The source made the active and inactive calls. How the calls were made is not given here.
Answer with one of the outcomes given here: class 1 (active), class 0 (inactive)

Worked examples follow.
compound	group
O=C(Nc1nc2cccnc2s1)c1cccnn1	class 0
COc1ccc(C)c2sc(NC(=O)c3ccc(F)cc3)nc12	class 0
COc1ccc(C)c2sc(C(=O)NC3CCCC3)nc12	class 0
COc1ccc(C)c2sc(NS(=O)(=O)c3ccc(F)cc3F)nc12	class 0
COc1ccc(C)c2sc(NC(=O)C3=C(C)OCCO3)nc12	class 0
COc1ccc(C)c2sc(C(=O)Nc3ccncc3)nc12	class 0

Each compound tested received a call. Report the one for COc1ccc(C)c2sc(NC(=O)c3ccc(C)cc3)nc12 . class 0

Test call for this compound, please: COc1ccc(C)c2sc(NS(=O)(=O)c3cnn(C)c3)nc12 class 0

What was the test verdict on COc1ccc(C)c2sc(NS(=O)(=O)c3cccc(Cl)c3)nc12 ? class 0

Could you please tell me the result logged for COc1ccc(C)c2sc(NS(=O)(=O)c3ccc(C(F)(F)F)cc3)nc12 in this assay? class 0

Please let me know the test result on file for COc1ccc2nc(NC(=O)c3ccncc3)sc2n1 . class 0

Hey, what did the test say about COc1ccc(C)c2sc(NC(=O)N3CCCCC3)nc12 ? class 0

Per the records of this test, what outcome belongs to O=C(Nc1nc2ccccc2s1)C1CCCCO1 (centres undefined) ? class 0

I'd appreciate the recorded outcome for Clc1cccc(Nc2n[nH]c3ccccc23)c1 from this test. class 0

Returns: the outcome recorded for COc1ccc(C)c2sc(C(=O)NCc3ccncc3)nc12 in this assay. class 0

I'd appreciate the recorded outcome for COc1ccc(C)c2sc(C(=O)Nc3ccc(C)nc3)nc12 from this test. class 0

I'd appreciate the recorded outcome for O=C(Nc1nc2cccnc2s1)C1CCCC1 from this test. class 0

Fill in: this test's call for COc1ccc(C)c2sc(NC(=O)C3CCCCO3)nc12 (centres undefined) is ___ class 1

Record lookup: outcome of this test for COc1ccc(C)c2sc(NS(=O)(=O)c3ccc4occc4c3)nc12 ? class 0

###

biological target: Muscarinic acetylcholine receptor M4 (Homo sapiens) (UniProt P08173); experiment: potency of ACh potentiation at hM4 – cell-based, calcium mobilization, human receptor, SAR follow-up (AID 623938); details: hM4 cells, PAM with EC20 ACh
Sequence (P08173 whole entry, looked up): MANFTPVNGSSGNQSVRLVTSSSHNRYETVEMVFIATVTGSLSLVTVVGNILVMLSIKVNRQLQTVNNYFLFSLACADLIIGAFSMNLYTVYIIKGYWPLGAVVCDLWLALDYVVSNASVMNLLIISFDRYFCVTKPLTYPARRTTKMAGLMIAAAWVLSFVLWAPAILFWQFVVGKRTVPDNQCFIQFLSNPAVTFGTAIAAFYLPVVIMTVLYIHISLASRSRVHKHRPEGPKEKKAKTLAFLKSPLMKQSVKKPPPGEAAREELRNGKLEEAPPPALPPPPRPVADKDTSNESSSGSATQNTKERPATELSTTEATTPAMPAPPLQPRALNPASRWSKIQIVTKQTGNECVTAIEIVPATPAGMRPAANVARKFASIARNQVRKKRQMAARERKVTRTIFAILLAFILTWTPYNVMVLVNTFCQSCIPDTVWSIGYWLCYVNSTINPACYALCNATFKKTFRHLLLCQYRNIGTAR
experimentalEndpoint: EC50

See these solved cases before continuing.
compound	tgt	EC50
Cc1ccc(CNC(=O)c2sc3nc(C)c(Cl)c(C)c3c2N)cc1	Muscarinic acetylcholine receptor M4 (Homo sapiens) (UniProt P08173)	132 nM
Cc1nc2sc(C(=O)NC(C)(C)C)c(N)c2c(C)c1Cl	Muscarinic acetylcholine receptor M4 (Homo sapiens) (UniProt P08173)	372 nM
COc1ccc(C)c2sc(NC(=O)N3CCCC3)nc12	Muscarinic acetylcholine receptor M4 (Homo sapiens) (UniProt P08173)	> 10000 nM
COc1ccc(C)c2sc(NC(=O)c3cnccn3)nc12	Muscarinic acetylcholine receptor M4 (Homo sapiens) (UniProt P08173)	745 nM
Cc1nc2sc(C(=O)NCc3cccnc3)c(N)c2c(C)c1Cl	Muscarinic acetylcholine receptor M4 (Homo sapiens) (UniProt P08173)	328 nM
Cc1nc2sc(C(=O)NCc3cnccn3)c(N)c2c(C)c1Cl	Muscarinic acetylcholine receptor M4 (Homo sapiens) (UniProt P08173)	250 nM

EC50 reading for COc1ccc(C)c2sc(NC(=O)C3CCC3)nc12 : > 10000 nM

// EC50 value for COc1ccc(C)c2sc(NC(=O)C3CC3)nc12 : > 10000 nM

###

target: Muscarinic acetylcholine receptor M4 (Homo sapiens) (UniProt P08173); assay: potency of ACh potentiation at hM4 – cell-based, calcium mobilization, human receptor, SAR follow-up (AID 623938); settings: hM4 cells, PAM with EC20 ACh
pEC50: −log10 of the molar value.
experimentalEndpoint: pEC50

molecule	experimentalEndpoint	reported
Cc1nc2sc(C(=O)NCc3ccccn3)c(N)c2c(C)c1Cl	pEC50	6.53
COc1ccc(C)c2sc(NC(=O)c3ccco3)nc12	pEC50	5.85
Cc1nc2sc(C(=O)NC(C)c3cccnc3)c(N)c2c(C)c1Cl (stereo not drawn)	pEC50	6.22
COc1ccc(C)c2sc(NC(=O)NC3CC3)nc12	pEC50	< 5.00

pEC50 for Cc1nc2sc(C(=O)NCC3CCCCC3)c(N)c2c(C)c1Cl is 5.96

The recorded pEC50 for COc1ccc(CNC(=O)c2sc3nc(C)c(Cl)c(C)c3c2N)cc1 is 7.05

Entry under test: Cc1nc2sc(C(=O)NC3CCCCC3)c(N)c2c(C)c1Cl . Its pEC50 was 6.73

molecule Cc1nc2sc(C(=O)NCCc3ccccn3)c(N)c2c(C)c1Cl , pEC50 observed: 6.16

get_value(item= Cc1nc2sc(C(=O)NCCC3CCCN3C)c(N)c2c(C)c1Cl (stereo not drawn) , readout=pEC50) returns 6.22

So for COc1ccc(C)c2sc(NC(=O)C3CCCC3)nc12 , the logged pEC50 turned out to be < 5.00

According to the records, this molecule Cc1nc2sc(C(=O)NC3CC3)c(N)c2c(C)c1Cl displays pEC50 of 7.68

Kindly note the recorded pEC50 for CCCC(=O)Nc1nc2c(OC)ccc(C)c2s1 , which is < 5.00

Query Cc1cc(CNC(=O)c2sc3nc(C)c(Cl)c(C)c3c2N)ccn1 yields pEC50 of 7.24

###

target: Muscarinic acetylcholine receptor M4 (Homo sapiens); experiment: potency of ACh potentiation at hM4 – cell-based, calcium mobilization, human receptor, SAR follow-up (AID 623938); details: hM4 cells, PAM with EC20 ACh
Calls of active or inactive are those of the source. No rule for the calls is given here.
Write down the outcome that applies. Available outcomes: active, inactive

Some entries whose results are on file:
molecule	tgt	group
COc1ccc(C)c2sc(NCC3CC3)nc12	Muscarinic acetylcholine receptor M4 (Homo sapiens)	inactive
COc1ccc(C)c2sc(NC(=O)c3c(F)cccc3F)nc12	Muscarinic acetylcholine receptor M4 (Homo sapiens)	inactive
O=C(Nc1nc2cccnc2s1)C1CCC1	Muscarinic acetylcholine receptor M4 (Homo sapiens)	inactive
COc1ccc(C)c2sc(C(=O)NC3CCCCC3)nc12	Muscarinic acetylcholine receptor M4 (Homo sapiens)	inactive
COc1ccc(C)c2sc(NC(=O)Nc3ccncc3)nc12	Muscarinic acetylcholine receptor M4 (Homo sapiens)	inactive

What is the recorded call for this molecule in the test? O=C(Nc1nc2cccnc2s1)c1cnccn1 inactive

Record lookup: outcome of this test for COc1ccc(C)c2sc(NS(=O)(=O)c3cccc(C)c3)nc12 ? inactive

###

biological target: Muscarinic acetylcholine receptor M4 (Homo sapiens) (UniProt P08173); assay: potency of ACh potentiation at hM4 – cell-based, calcium mobilization, human receptor, SAR follow-up (AID 623938); details: hM4 cells, PAM with EC20 ACh
experimentalEndpoint: EC50

A selection of reference data follows.
compound	EC50
Cc1nc2sc(C(=O)NC3CCOCC3)c(N)c2c(C)c1Cl	220 nM
COc1ccc(C)c2sc(C(=O)NC3CC3)nc12	> 10000 nM
Cc1nc2sc(C(=O)NC(C)c3ccncc3)c(N)c2c(C)c1Cl (stereo not given)	600 nM
COCC(=O)Nc1nc2c(OC)ccc(C)c2s1	> 10000 nM
Cc1nc2sc(C(=O)NC3CCOC3)c(N)c2c(C)c1Cl (stereo not given)	29 nM
COc1ccc(C)c2sc(NC(=O)C3CCCOC3)nc12 (stereo not given)	> 10000 nM
Cc1nc2sc(C(=O)NCc3ccc(C(F)(F)F)cc3)c(N)c2c(C)c1Cl	1140 nM
COc1ccc(C)c2sc(NC(=O)C3CCCCC3)nc12	> 10000 nM

get_value(item= Cc1nc2sc(C(=O)NC(C)C)c(N)c2c(C)c1Cl , readout=EC50) returns 183 nM

Per the records, this compound ( Cc1nc2sc(C(=O)NCc3ccncc3)c(N)c2c(C)c1Cl ) has EC50 equal to 37 nM

Reported EC50 for Cc1nc2sc(C(=O)NCc3ncccn3)c(N)c2c(C)c1Cl was 1070 nM

Field EC50 (entry COCCCNC(=O)c1sc2nc(C)c(Cl)c(C)c2c1N ) reads 425 nM

###

target: Muscarinic acetylcholine receptor M4 (Homo sapiens) (UniProt P08173); experiment: potency of ACh potentiation at hM4 – cell-based, calcium mobilization, human receptor, SAR follow-up (AID 623938); conditions: hM4 cells, PAM with EC20 ACh
pEC50: −log10 of the molar value.
experimentalEndpoint: pEC50

compound	reported
COc1ccc(C)c2sc(NC(=O)C3CC3C)nc12 (centres undefined)	< 5.00
COc1ccc(C)c2sc(NC(=O)c3cccnc3)nc12	5.60
Cc1nc2sc(C(=O)NCc3ccccc3Cl)c(N)c2c(C)c1Cl	6.81

Given item Cc1nc2sc(C(=O)NCc3ccc4c(c3)OCO4)c(N)c2c(C)c1Cl , the value recorded as its pEC50 is 6.77

FYI, the data here is from PubChem BioAssay AID623938.
